TARGET OR SYSTEM: human plasma renin (Homo sapiens)
ASSAY: Renin inhibiting activities (human plasma, angiotensin I by radio immunoassay)
MEASUREMENT SETUP: pH7.4, 37° C., one hour, read-out: IC50 (50 % inhibition concentrations), renin inhibiting activity
pIC50: −log10 of the molar value.
TEST READOUT: pIC50

CCCC[C@H](NC(=O)[C@H](Cc1cccc2ccccc12)CS(=O)(=O)CC(O)COC(C)=O)C(=O)N[C@@H](CC1CCCCC1)[C@@H](O)[C@@H](O)CN1CCOCC1 (stereo partly drawn) ... 8.20

[P] CCCC[C@H](NC(=O)[C@@H](CSCC(COC(C)=O)OC(C)=O)Cc1ccccc1)C(=O)N[C@@H](CC1CCCCC1)[C@@H](O)[C@@H](O)CN1CCOCC1 (mixture of isomers)
[Q] CCCC[C@H](NC(=O)[C@H](Cc1cccc2ccccc12)CS(=O)(=O)CC(COC(=O)CC)OC(=O)CC)C(=O)N[C@@H](CC1CCCCC1)[C@@H](O)[C@@H](O)CN1CCOCC1 (mixture of isomers)
Parameter check: reported pIC50 is higher for which label, P or Q ? Please identify the chosen entry by its label.
Q

---

TARGET OR SYSTEM: human plasma renin (Homo sapiens, UniProt P00797)
Sequence (P00797 67-406): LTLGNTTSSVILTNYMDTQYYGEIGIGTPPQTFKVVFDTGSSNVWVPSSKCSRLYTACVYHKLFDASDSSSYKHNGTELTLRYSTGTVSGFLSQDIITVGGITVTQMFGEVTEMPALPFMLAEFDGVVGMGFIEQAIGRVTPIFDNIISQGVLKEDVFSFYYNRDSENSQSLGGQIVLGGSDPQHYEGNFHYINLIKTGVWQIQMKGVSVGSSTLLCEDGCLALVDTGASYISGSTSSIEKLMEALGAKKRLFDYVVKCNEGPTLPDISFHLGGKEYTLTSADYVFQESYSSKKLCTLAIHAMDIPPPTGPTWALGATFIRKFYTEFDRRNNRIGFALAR
ASSAY: Renin inhibiting activities (human plasma, angiotensin I by radio immunoassay)
MEASUREMENT SETUP: pH7.4, 37° C., one hour, read-out: IC50 (50 % inhibition concentrations), renin inhibiting activity
TEST READOUT: IC50 (nM)

CC(=O)OCC(CS(=O)(=O)C[C@@H](Cc1cccc2ccccc12)C(=O)N[C@@H](Cc1c[nH]cn1)C(=O)N[C@@H](CC1CCCCC1)[C@@H](O)[C@@H](O)CN1CCOCC1)OC(C)=O (stereo partly shown) ... 4.8

[a] CCCC[C@H](NC(=O)[C@H](Cc1cccc2ccccc12)C[S+]([O-])CC(COC(C)=O)OC(C)=O)C(=O)N[C@@H](CC1CCCCC1)[C@@H](O)[C@@H](O)CN1CCOCC1 (mixture of isomers) [Example 6 (having a low Rf value)]
[b] CCCC[C@H](NC(=O)[C@H](Cc1ccccc1)CS(=O)(=O)CC(COC(C)=O)OC(C)=O)C(=O)N[C@@H](CC1CCCCC1)[C@@H](O)[C@@H](O)CN1CCOCC1 (mixture of isomers)
[c] COC(COC(C)=O)CS(=O)(=O)C[C@@H](Cc1cccc2ccccc12)C(=O)N[C@@H](Cc1cscn1)C(=O)N[C@@H](CC1CCCCC1)[C@@H](O)[C@@H](O)CN1CCOCC1 (stereo partly shown)
Please list the entries, largest IC50 first. Please express your ranking as an ordered list of the labels.
b, a, c

---

TARGET OR SYSTEM: human plasma renin (Homo sapiens, UniProt P00797)
ASSAY: Renin inhibiting activities (human plasma, angiotensin I by radio immunoassay)
MEASUREMENT SETUP: pH7.4, 37° C., one hour, read-out: IC50 (50 % inhibition concentrations), renin inhibiting activity
pIC50: −log10 of the molar value.
TEST READOUT: pIC50

[A] CCCC[C@H](NC(=O)[C@H](Cc1cccc2ccccc12)CS(=O)(=O)CC(COC(C)=O)OCC)C(=O)N[C@@H](CC1CCCCC1)[C@@H](O)[C@@H](O)CN1CCOCC1 (mixture of isomers)
[B] CCCC[C@H](NC(=O)[C@H](Cc1cccc2ccccc12)C[S+]([O-])c1ccc(OC(C)=O)cc1)C(=O)N[C@@H](CC1CCCCC1)[C@@H](O)[C@@H](O)CN1CCOCC1 (single isomer, unassigned)
[C] CCCC[C@H](NC(=O)[C@@H](CSc1ccc(OC(C)=O)cc1)Cc1cccc2ccccc12)C(=O)N[C@@H](CC1CCCCC1)[C@@H](O)[C@@H](O)CN1CCOCC1
Rank the 3 molecules shown above by pIC50, smallest number first. Quick reminder: the answer is the labels in the order asked.
C, B, A
(C: 8.04, B: 8.40, A: 8.62)
